Tested on: blackgrass
protocol-text: Test B pre/postemergence blackgrass
Type: in vivo, Alopecurus myosuroides
setup-conditions: Postemergence, Rate 500 g/ha; scale of 0 to 10 where 0 is no effect and 10 is complete control
readout-type: Blackgrass plant response rating
No unit in the answer, please; the number alone is enough.

These recorded examples may help you get a feel for the data.
[[record]]
molecule = "CC(C)N(C(=O)n1oc(=O)n(C(C)C#N)c1=O)c1ccc(F)cc1F (stereo not shown)"
measured_value = 4

[[record]]
molecule = "CCOC(=O)C=C(Cn1c(=O)on(C(=O)N(c2ccc(F)cc2)C(C)C)c1=O)OCC"
measured_value = 6

[[record]]
molecule = "CC(C)N(C(=O)n1oc(=O)n(CC#N)c1=O)c1ccccc1"
measured_value = 0


Task item: Look up Blackgrass plant response rating of CC(C)N(C(=O)n1oc(=O)n(C(CF)CF)c1=O)c1ccc(Cl)cc1 and report it.
Reply: 8
